meta.source: patent US9145391B2

- measuredOn: recombinant human GST-Syk (Homo sapiens (Human))
- experimentSummary: Homogeneous Time-Resolved Fluorescence (HTRF) assay for the recombinant human Syk enzyme
- testConditions: recombinant human GST-Syk 5 pM, ATP 25 μM, read-out: rhSyk IC50
pIC50: −log10 of the molar value.
Please note: yes (1) applies when pIC50 is 8 or greater, and no (0) applies otherwise.

Record excerpt, results attached:
molecule="Cc1cc(Nc2cc(C(F)F)ccn2)nc(-c2ccc(C(C)(O)C3CCC(C(=O)O)CC3)nc2)c1 (single isomer, unassigned)" class="yes (1)"
molecule=Cc1cc(Nc2cc(C(F)(F)F)ccn2)nc(-c2ccc(NC3CCN(C(=O)c4ccc5ncccc5c4)CC3)nc2)c1 class="yes (1)"
molecule="Cc1cc(Nc2cc(C(F)F)ccn2)nc(-c2ccc(C(C)(O)[C@H]3CC[C@H](C(=O)OCC(C)C)CC3)nc2)c1 (single isomer, unassigned)" class="no (0)"
molecule=Cc1cc(Nc2cc(C(F)(F)F)ccn2)nc(-c2ccc(NC3CCN(C(=O)Cc4cccc(O)c4)CC3)nc2)c1 class="yes (1)"
molecule="Cc1cc(Nc2cc(C(F)(F)F)ccn2)nc(-c2ccc(N3CCCC(C(=O)N4CCCC(C(=O)O)C4)C3)nc2)c1 (stereo not shown) [Example 2-28]" class="yes (1)"

Task: Given the entry Cc1cc(Nc2cc(C(F)(F)F)ccn2)nc(-c2ccc([C@]3(O)CC[C@H](C(N)=O)C(C)(C)C3)nc2)c1 (single isomer, unassigned) , answer whether its pIC50 meets or surpasses 8.
Output: no (0)

Task: Given Cc1cc(Nc2cc(C(F)(F)F)ccn2)nc(-c2ccc(NC3CCN(C(=O)c4nn(-c5ccccc5)nc4C)CC3)nc2)c1 , state whether its pIC50 is at least 8.
Output: no (0)

Task: Hello, I need to know if Cc1cc(Nc2cc(C(F)F)ccn2)nc(-c2ccc(C(C)(O)[C@H]3CC[C@H](C(=O)O)CC3)nc2)c1 (single isomer, unassigned) [Example 12] has measured pIC50 not below 8. Thanks!
Output: yes (1)

Task: State whether the measured pIC50 reaches 8, counting equality as reaching it, for CCCCCCCCOC(=O)[C@H]1CC[C@H](C(C)(O)c2ccc(-c3cc(C)cc(Nc4cc(C(F)F)ccn4)n3)cn2)CC1 (single isomer, unassigned)
Output: no (0)

Task: API: above_or_equal(metric=pIC50, cutoff=8) for item Cc1cc(Nc2cc(C(F)(F)F)ccn2)nc(-c2ccc(NC3CCN(C(=O)c4ccc5ccccc5c4)CC3)nc2)c1
Output: no (0)
